Recorded IC50: FPN internalisation, one value per entry.
target system: T1, human ferroportin (SLC40A1) fused in frame with GFP (human) (UniProt Q9NP59)
T1 sequence (looked up): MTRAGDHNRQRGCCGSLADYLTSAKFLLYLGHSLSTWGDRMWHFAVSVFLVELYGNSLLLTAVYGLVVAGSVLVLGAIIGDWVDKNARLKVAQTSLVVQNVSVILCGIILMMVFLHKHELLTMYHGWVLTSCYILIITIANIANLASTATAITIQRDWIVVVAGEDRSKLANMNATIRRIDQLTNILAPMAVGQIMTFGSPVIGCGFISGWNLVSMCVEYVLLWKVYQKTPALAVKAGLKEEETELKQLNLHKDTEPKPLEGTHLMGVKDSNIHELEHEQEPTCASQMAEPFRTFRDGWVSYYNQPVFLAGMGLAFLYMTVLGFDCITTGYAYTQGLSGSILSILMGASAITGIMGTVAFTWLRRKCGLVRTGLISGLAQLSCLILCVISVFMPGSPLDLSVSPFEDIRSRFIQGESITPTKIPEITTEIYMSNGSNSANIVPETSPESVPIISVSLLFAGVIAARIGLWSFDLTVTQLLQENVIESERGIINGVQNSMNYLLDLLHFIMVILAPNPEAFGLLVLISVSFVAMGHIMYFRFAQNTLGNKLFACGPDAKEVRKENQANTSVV
procedure details: cell-based or functional assay
Starred links: 1 amine or outer side, 2 acyl side, 3 side chain; linkers in the order of their positions; H or OH if unused. Positions of bridges follow the written chain, without caps; N, C: chain ends. Non-standard residues stand in square brackets, D forms with d. Groups on a side chain read outwards from the residue. Chains are numbered I, II in the order given. No end group written: not given here. *: point of attachment. PEG12 = NCCOCCOCCOCCOCCOCCOCCOCCOCCOCCOCCOCCOCCC(=O)O; Dip = N[C@H](C(=O)O)C(c1ccccc1)c1ccccc1; γGlu = O=C(O)[C@H](CCC(=O)[*:2])N[*:1]; AEF = NCCOc1ccc(C[C@H](N)C(=O)O)cc1; Palmitoyl = CCCCCCCCCCCCCCCC(=O)*; β3hF = N[C@H](CC(=O)O)Cc1ccccc1; Isovaleryl = CC(C)CC(=O)*; Npc = nipecotic acid; βAla = NCCC(=O)O
measure: IC50: FPN internalisation

binder	measure	recorded measurement
Seq. No. 317 (disulfide I:6-II:4) peptide 1: Isovaleryl-DTHFPCIK([γGlu-Palmitoyl])FEPR peptide 2: SKGCK-NH2	IC50: FPN internalisation	13.7 nM
DTHXPCIKXKKC (N-term isovaleric acid; 4 Dpa; 8 (D)Lys; 9 bhPhe; 10 Lys(PEG12_Palm); 11 (D)Lys; C-term NH2) [Seq. No. 349]	IC50: FPN internalisation	11.2 nM
Isovaleryl-DTH[Dip]PCI[βAla][β3hF]K([PEG12-Palmitoyl])[dK]C-NH2 (disulfide 6-12 (inferred)) [Seq. No. 333]	IC50: FPN internalisation	7.16 nM
Isovaleryl-DTH[Dip]PCI[β3hF][dK]C-NH2 (disulfide 6-10 (inferred)) [Seq. No. 324]	IC50: FPN internalisation	23.3 nM
Isovaleryl-DTH[Dip][Npc]CI[dK][AEF]K([PEG12-Palmitoyl])KC-NH2 (disulfide 6-12 (inferred)) [Seq. No. 358]	IC50: FPN internalisation	> 3000 nM

Provenance of the data: patent US20240018189A1
